Provenance of the data: PubChem BioAssay (Tox21)

Target System: Estrogen receptor (Homo sapiens) (UniProt P03372)
Sequence (P03372 whole entry, looked up): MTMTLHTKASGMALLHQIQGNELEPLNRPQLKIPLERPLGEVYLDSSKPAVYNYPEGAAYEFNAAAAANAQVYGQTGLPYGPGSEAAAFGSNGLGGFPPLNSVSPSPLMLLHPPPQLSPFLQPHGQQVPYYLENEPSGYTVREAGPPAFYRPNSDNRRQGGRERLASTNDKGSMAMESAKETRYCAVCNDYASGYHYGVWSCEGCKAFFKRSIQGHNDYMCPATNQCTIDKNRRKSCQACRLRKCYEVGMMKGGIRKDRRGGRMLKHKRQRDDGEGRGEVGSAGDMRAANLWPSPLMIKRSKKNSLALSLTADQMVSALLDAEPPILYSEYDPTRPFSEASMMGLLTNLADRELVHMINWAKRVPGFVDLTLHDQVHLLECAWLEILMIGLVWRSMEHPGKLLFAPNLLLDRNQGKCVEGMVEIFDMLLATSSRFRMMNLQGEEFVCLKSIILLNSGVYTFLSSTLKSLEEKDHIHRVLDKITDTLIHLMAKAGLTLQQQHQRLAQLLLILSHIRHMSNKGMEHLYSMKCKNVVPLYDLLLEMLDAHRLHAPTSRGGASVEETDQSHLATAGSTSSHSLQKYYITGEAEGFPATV
Protocol Summary: qHTS assay to identify small molecule antagonists of the estrogen receptor alpha (ER-alpha) signaling pathway (AID 743069)
Reported Conditions: HEK293 ER-alpha-UAS-bla, beta-lactamase ratio, antagonist mode; series mostly up to 69.4 µM
Results filed as inconclusive are left out. Activity calls are given as the source filed them. The call rests on the fitted dose curve; in most records, active means well fitted curve in the direction sought with a large enough effect in the signal ratio in the repeat runs (not every such curve was filed as active); inconclusive means weak or mixed curves, or effect the other way; inactive means no such curve, though single readings can be large or run the other way; the % refers to the signal ratio.
Write down one outcome, taken from active, inactive

The examples below pair each entry with its known result.
>>> label_class("CC(C)CP(=S)(S)CC(C)C")
"inactive"
>>> label_class("ClC(Cl)(Cl)C(Cl)(Cl)Cl")
"inactive"
>>> label_class("Cc1ncc(CNC(=O)N(CCCl)N=O)c(N)n1")
"inactive"
>>> label_class("[O]=[Cd]")
"inactive"
>>> label_class("CC1=C(C(=O)Nc2ccccc2)S(=O)(=O)CCO1")
"inactive"

Turning now to a further compound:
query: Kindly provide the recorded test outcome for the following compound: CCOc1nc(C(Cl)(Cl)Cl)ns1
result: inactive
